Source of measurements: ChEMBL document CHEMBL2417357

# ASSAY: Selectivity index, ratio of IC50 for rat L6 cells to IC50 for Trypanosoma brucei rhodesiense STIB900
# Format: toxicity, cell-based
# TEST_SETTINGS: read-out: Ratio IC50
Decision: selectivity ratio beneath 200 gives fulfilled; selectivity ratio meeting or exceeding 200 gives not fulfilled.

COMPOUND	ANSWER_LABEL
Cl.Cl.N/C(=N\O)c1cccc(COc2ccc(/C(N)=N/O)cc2I)c1	fulfilled
COc1cc(/C(N)=N/O)cc(OC)c1OCc1ccc(/C(N)=N/O)cc1.Cl.Cl	fulfilled
N=C(N)c1ccc(COc2c(I)cc(C(=N)N)cc2I)cc1	not fulfilled
N=C(N)c1cccc(OCc2ccccc2)c1	fulfilled
Cl.Cl.N=C(N)c1cccc(COc2ccc(C(=N)N)cc2[N+](=O)[O-])c1	not fulfilled
COc1cc(C(=N)N)cc(OC)c1OCc1ccc(C(=N)N)cc1.Cl.Cl	not fulfilled
COc1ccc(OCc2ccc(C(=N)N)cc2)cc1	fulfilled
N=C(N)c1cccc(COc2c(Cl)cc(C(=N)N)cc2Cl)c1	fulfilled
Cl.Cl.N/C(=N\O)c1ccc(COc2ccc(/C(N)=N/O)cc2I)cc1	fulfilled
CO/N=C(\N)c1ccc(COc2ccc(/C(N)=N/OC)cc2I)cc1.Cl.Cl	fulfilled
CC(C)c1ccc(OCc2ccc(C(=N)N)cc2)cc1	fulfilled
N=C(N)c1cc(I)c(OCc2cccc([N+](=O)[O-])c2)c(I)c1	fulfilled
Cl.Cl.N/C(=N\O)c1cccc(COc2c(Br)cc(/C(N)=N/O)cc2Br)c1	fulfilled
CO/N=C(\N)c1cccc(COc2c(Br)cc(/C(N)=N/OC)cc2Br)c1.Cl.Cl	fulfilled
Cl.Cl.N/C(=N\O)c1cccc(COc2c(I)cc(/C(N)=N/O)cc2I)c1	fulfilled
COc1cc(C(=N)N)cc(I)c1OCc1cccc(C(=N)N)c1.Cl	not fulfilled
Cl.Cl.N/C(=N\O)c1ccc(COc2ccc(/C(N)=N/O)cc2Br)cc1	fulfilled
CO/N=C(\N)c1cccc(COc2ccc(/C(N)=N/OC)cc2I)c1.Cl.Cl	fulfilled
N=C(N)c1ccc(COc2c(Cl)cc(C(=N)N)cc2Cl)cc1	not fulfilled
N=C(N)c1ccc(OCc2cccc(C(=N)N)c2)cc1	not fulfilled
N=C(N)c1cccc(COc2cccc(C(=N)N)c2)c1	not fulfilled
N=C(N)c1ccc(COc2cccc([N+](=O)[O-])c2)cc1	fulfilled
N=C(N)c1ccc(COc2cccc(C(=N)N)c2)cc1	not fulfilled
COc1cc(/C(N)=N/O)cc(I)c1OCc1cccc(/C(N)=N/O)c1.Cl.Cl	fulfilled
COc1cc(C(=N)N)cc(Br)c1OCc1cccc(C(=N)N)c1.Cl.Cl	not fulfilled
CO/N=C(\N)c1cccc(COc2c(Br)cc(/C(N)=N/OC)cc2OC)c1.Cl.Cl	fulfilled
N=C(N)c1ccc(COc2ccc(Cl)cc2)cc1	fulfilled
N=C(N)c1cccc(OCc2cccc([N+](=O)[O-])c2)c1	fulfilled
N=C(N)c1ccc(OCc2ccc([N+](=O)[O-])cc2)c(I)c1	fulfilled
COc1cc(/C(N)=N/O)cc(Br)c1OCc1cccc(/C(N)=N/O)c1.Cl.Cl	fulfilled
Cl.Cl.N/C(=N\O)c1ccc(COc2ccc(/C(N)=N/O)cc2)cc1	fulfilled
Cl.Cl.Cl.N/C(=N\O)c1cccc(COc2ccc(/C(N)=N/O)cc2Cl)c1	fulfilled
N=C(N)c1ccc(COc2ccc([N+](=O)[O-])cc2)cc1	fulfilled
CO/N=C(\N)c1cccc(COc2c(I)cc(/C(N)=N/OC)cc2OC)c1.Cl.Cl	fulfilled
CO/N=C(\N)c1cccc(COc2ccc(/C(N)=N/OC)cc2Cl)c1.Cl.Cl.Cl	fulfilled
CO/N=C(\N)c1cccc(COc2c(I)cc(/C(N)=N/OC)cc2I)c1.Cl.Cl	fulfilled
N=C(N)c1ccc(COc2c(Br)cc(C(=N)N)cc2Br)cc1	not fulfilled
N=C(N)c1ccc(COc2ccc(C(=N)N)cc2Br)cc1	not fulfilled
N=C(N)c1cccc(COc2ccc(C(=N)N)cc2I)c1	not fulfilled
Nc1nc(N)nc(Nc2ccc([As]3SCC(CO)S3)cc2)n1 (centres undefined) [MELARSOPROL]	not fulfilled
N=C(N)c1ccc(COc2ccc(C(=N)N)cc2)cc1	fulfilled

====

# ASSAY: Selectivity index, ratio of IC50 for rat L6 cells to IC50 for amastigotes of Leishmania donovani
# Type: toxicity, cell-based
# TEST_SETTINGS: read-out: Ratio IC50
ASSAY_METRIC: selectivity ratio

Cl.Cl.N/C(=N\O)c1cccc(COc2ccc(/C(N)=N/O)cc2I)c1 < 1
N=C(N)c1cccc(COc2c(I)cc(C(=N)N)cc2I)c1 14
COc1cc(C(=N)N)cc(Br)c1OCc1cccc(C(=N)N)c1.Cl.Cl < 2
N=C(N)c1ccc(COc2c(Cl)cc(C(=N)N)cc2Cl)cc1 4
CC(C)NC(=N)c1ccc(COc2ccc(C(=N)NC(C)C)cc2)cc1 > 5
Cl.Cl.N/C(=N\O)c1ccc(COc2ccc(/C(N)=N/O)cc2Br)cc1 < 1

====

# ASSAY: Selectivity index, ratio of IC50 for rat L6 cells to IC50 for chloroquine-resistant Plasmodium falciparum K1
# Assay type: toxicity, cell-based
# TEST_SETTINGS: read-out: Ratio IC50
ASSAY_METRIC: selectivity ratio

N=C(N)c1cccc(COc2ccc(C(=N)N)cc2Br)c1 302
COc1cc(C(=N)N)cc(Br)c1OCc1cccc(C(=N)N)c1.Cl.Cl 747
COc1cc(C(=N)N)cc(OC)c1OCc1cccc(C(=N)N)c1.Cl.Cl 416
Cl.Cl.Cl.Cl.N/C(=N\O)c1cccc(COc2c(Cl)cc(/C(N)=N/O)cc2Cl)c1 1
COc1cc(C(=N)N)cc(OC)c1OCc1ccc(C(=N)N)cc1.Cl.Cl 1180
N=C(N)c1cc(I)c(OCc2cccc([N+](=O)[O-])c2)c(I)c1 26
N=C(N)c1ccc(COc2ccc(C(=N)N)cc2Br)cc1 1250

====

# ASSAY: Selectivity index, ratio of IC50 for rat L6 cells to IC50 for chloroquine-resistant Plasmodium falciparum K1
# Assay type: toxicity, cell-based
# TEST_SETTINGS: read-out: Ratio IC50
Returns yes (1) if the recorded selectivity ratio is greater than or equal to 70, and no (0) otherwise.

CO/N=C(\N)c1cccc(COc2c(I)cc(/C(N)=N/OC)cc2OC)c1.Cl.Cl yes (1)
N=C(N)c1ccc(COc2ccc(N)cc2)cc1 yes (1)
CC(C)NC(=N)c1ccc(COc2ccc(C(=N)NC(C)C)cc2)cc1 yes (1)
Cl.Cl.N/C(=N\O)c1cccc(COc2c(I)cc(/C(N)=N/O)cc2I)c1 no (0)
Cl.Cl.N/C(=N\O)c1cccc(COc2ccc(/C(N)=N/O)cc2Br)c1 no (0)
N=C(N)c1ccc(COc2c(Cl)cc(C(=N)N)cc2Cl)cc1 yes (1)
Cl.Cl.N/C(=N\O)c1ccc(COc2ccc(/C(N)=N/O)cc2I)cc1 no (0)
N=C(N)c1ccc(COc2cccc(C(=N)N)c2)cc1 yes (1)
N=C(N)c1ccc(COc2ccc(C(=N)N)cc2Cl)cc1 yes (1)
CC(C)c1ccc(OCc2ccc(C(=N)N)cc2)cc1 no (0)
CO/N=C(\N)c1cccc(COc2ccc(/C(N)=N/OC)cc2I)c1.Cl.Cl no (0)

====

# ASSAY: Selectivity index, ratio of IC50 for rat L6 cells to IC50 for Trypanosoma brucei rhodesiense STIB900
# Format: toxicity, cell-based
# TEST_SETTINGS: read-out: Ratio IC50
# reported selectivity ratio; entries follow
ASSAY_METRIC: selectivity ratio

N=C(N)c1ccc(COc2ccc(C(=N)N)cc2Cl)cc1 147
N=C(N)c1ccc(OCc2ccccc2)cc1 69
CO/N=C(\N)c1cccc(COc2c(Cl)cc(/C(N)=N/OC)cc2Cl)c1.Cl.Cl.Cl.Cl 2
COc1cc(/C(N)=N/O)cc(OC)c1OCc1cccc(/C(N)=N/O)c1.Cl.Cl < 1
CO/N=C(\N)c1ccc(COc2c(OC)cc(/C(N)=N/OC)cc2OC)cc1.Cl.Cl > 1
CO/N=C(\N)c1cccc(COc2ccc(/C(N)=N/OC)cc2Br)c1.Cl.Cl 1
N=C(N)c1ccc(COc2ccc(C(=N)N)cc2I)cc1 312
N=C(N)c1cccc(COc2cccc([N+](=O)[O-])c2)c1 14
N=C(N)c1ccc(COc2ccccc2)cc1 45
N=C(N)c1cccc(COc2c(I)cc(C(=N)N)cc2I)c1 5680
Cl.Cl.N/C(=N\O)c1cccc(COc2ccc(/C(N)=N/O)cc2Br)c1 < 1
COc1cc(C(=N)N)cc(OC)c1OCc1cccc(C(=N)N)c1.Cl.Cl 524

====

Reported selectivity ratio values follow for various molecules
# ASSAY: Selectivity index, ratio of IC50 for rat L6 cells to IC50 for amastigotes of Leishmania donovani
# Assay type: toxicity, cell-based
# TEST_SETTINGS: read-out: Ratio IC50
ASSAY_METRIC: selectivity ratio

CO/N=C(\N)c1cccc(COc2c(OC)cc(/C(N)=N/OC)cc2OC)c1.Cl.Cl < 2
CO/N=C(\N)c1ccc(COc2ccc(/C(N)=N/OC)cc2Br)cc1.Cl.Cl < 1
N=C(N)c1cccc(COc2ccc(C(=N)N)cc2Br)c1 8
CO/N=C(\N)c1ccc(COc2c(OC)cc(/C(N)=N/OC)cc2OC)cc1.Cl.Cl > 2
Cl.Cl.N/C(=N\O)c1cccc(COc2ccc(/C(N)=N/O)cc2Br)c1 < 1
N=C(N)c1cccc(COc2ccc(C(=N)N)cc2I)c1 5
COc1cc(C(=N)N)cc(OC)c1OCc1ccc(C(=N)N)cc1.Cl.Cl < 2
CO/N=C(\N)c1cccc(COc2c(I)cc(/C(N)=N/OC)cc2OC)c1.Cl.Cl < 1
COc1cc(C(=N)N)cc(OC)c1OCc1cccc(C(=N)N)c1.Cl.Cl < 1
N=C(N)c1ccc(COc2ccc(C(=N)N)cc2Cl)cc1 1
COc1cc(C(=N)N)cc(I)c1OCc1cccc(C(=N)N)c1.Cl 3
CO/N=C(\N)c1cccc(COc2ccc(/C(N)=N/OC)cc2Br)c1.Cl.Cl 17
CO/N=C(\N)c1cccc(COc2ccc(/C(N)=N/OC)cc2Cl)c1.Cl.Cl.Cl < 1
CO/N=C(\N)c1cccc(COc2ccc(/C(N)=N/OC)cc2I)c1.Cl.Cl < 1
CO/N=C(\N)c1cccc(COc2c(Br)cc(/C(N)=N/OC)cc2OC)c1.Cl.Cl < 1
CO/N=C(\N)c1cccc(COc2c(Cl)cc(/C(N)=N/OC)cc2Cl)c1.Cl.Cl.Cl.Cl < 2
N=C(N)c1ccc(COc2cccc(C(=N)N)c2)cc1 < 1
N=C(N)c1cc(I)c(OCc2cccc([N+](=O)[O-])c2)c(I)c1 < 1
CO/N=C(\N)c1cccc(COc2c(Br)cc(/C(N)=N/OC)cc2Br)c1.Cl.Cl < 1
Cl.Cl.N/C(=N\O)c1cccc(COc2c(Br)cc(/C(N)=N/O)cc2Br)c1 < 1
CO/N=C(\N)c1cccc(COc2c(I)cc(/C(N)=N/OC)cc2I)c1.Cl.Cl < 1
